Data origin, for the record: PubChem BioAssay AID330

Tested on: P388 leukemia ip, CD2F1 mice, survival T/C
assay-explanation: NCI In Vivo Anticancer Drug Screen. Data for tumor model P388 Leukemia (intraperitoneal) in CD2F1 (CDF1) mice
measurement-parameters: endpoint: median survival time; dose: 50.0 mg/kg/injection; schedule: Q01DX009 (ip); vehicle: saline; higher = longer survival
Inconclusive results and toxic doses are left out.
measurement-label: T/C

Field T/C (entry COc1ccc(OC)c(N=Cc2cccs2)c1 ) reads 90 % of control

Field T/C (entry S=c1s/c(=C\c2ccccc2)c2nc3ccccc3n12 ) reads 90 % of control

Field T/C (entry CC(=O)Oc1ccc(/C=N\N(C)C)cc1 ) reads 102 % of control

Field T/C (entry Cn1c(=O)c2nc(-c3ccc(Cl)cc3)oc2n(C)c1=O ) reads 104 % of control

Field T/C (entry O=C(CSc1ncnc2nc[nH]c12)c1ccc([N+](=O)[O-])cc1 ) reads 92 % of control

Field T/C (entry CC(C)OS(=O)(=O)c1ccc([N+](=O)[O-])cc1 ) reads 94 % of control

Field T/C (entry CN(C)CCSc1sc(N)nc1-c1ccccc1 ) reads 100 % of control

Field T/C (entry CS(=O)(=O)N(C=O)c1ccccc1 ) reads 110 % of control

Field T/C (entry ClC1=C(Cl)C2(Cl)C3C(c4cc(Br)c(Br)cc4C4C3C3(Cl)C(Cl)=C(Cl)C4(Cl)C3(Cl)Cl)C1(Cl)C2(Cl)Cl (stereo not given) ) reads 101 % of control

Field T/C (entry C[CH2][Ge]([CH2]C)[CH2]C.C[CH2][Ge]([Cl])[CH2]C.C[CH2][Ge][CH2]C ) reads 104 % of control

Field T/C (entry CC1=CC2C(c3ccccc3)Nc3ccccc3N2C1=O (stereo not given) ) reads 94 % of control

Field T/C (entry OC(C/C=C/c1ccccc1)(c1ccccc1)c1ccccc1 ) reads 109 % of control

Field T/C (entry Cc1ccc(S(=O)(=O)C(CC(=O)CCN(C)C)c2ccccc2)cc1 (stereo not given) ) reads 96 % of control

Field T/C (entry CCSC(C)(C)C ) reads 102 % of control

Field T/C (entry [CH3][Ge]([CH3])=[O] ) reads 102 % of control

---

Test system: P388 leukemia ip, CD2F1 mice, survival T/C
assay-explanation: NCI In Vivo Anticancer Drug Screen. Data for tumor model P388 Leukemia (intraperitoneal) in CD2F1 (CDF1) mice
measurement-parameters: endpoint: median survival time; dose: 200.0 mg/kg/injection; schedule: Q01DX009 (ip); vehicle: Klucel (hydroxypropylcellulose) (HPC); higher = longer survival
Toxic doses and inconclusive results are not listed.
measurement-label: T/C

Reported P388 leukemia ip, CD2F1 mice, survival T/C T/C for item CNc1ccc(Nc2cccc(C)c2)c2c1C(=O)c1ccccc1C2=O was 113 % of control

Reported P388 leukemia ip, CD2F1 mice, survival T/C T/C for item CCCCOP(O)(=S)OCCCC.[Ti] was 96 % of control

Reported P388 leukemia ip, CD2F1 mice, survival T/C T/C for item CP1(=S)C=C(NC2CCCCC2)CC1 (stereo not given) was 95 % of control

Reported P388 leukemia ip, CD2F1 mice, survival T/C T/C for item O=C(O)c1ccccc1SCCO was 90 % of control

Reported P388 leukemia ip, CD2F1 mice, survival T/C T/C for item CN=C1NC(=O)C(C(C)c2c[nH]c3ccccc23)S1 (stereo not given) was 113 % of control

Reported P388 leukemia ip, CD2F1 mice, survival T/C T/C for item CCOP(O)(=S)OCC.[Ti] was 92 % of control

Reported P388 leukemia ip, CD2F1 mice, survival T/C T/C for item CC(C)Sc1nc2ccc(NC(=O)/C=C/C(=O)O)cc2s1 was 101 % of control

Reported P388 leukemia ip, CD2F1 mice, survival T/C T/C for item CCOC(=O)C1(C(=O)OCC)CCC1 was 96 % of control

Reported P388 leukemia ip, CD2F1 mice, survival T/C T/C for item O=C(OC1CSC=CSC1)c1ccccc1 was 110 % of control

Reported P388 leukemia ip, CD2F1 mice, survival T/C T/C for item CC(C)(C)n1nnnc1Cl was 107 % of control

Reported P388 leukemia ip, CD2F1 mice, survival T/C T/C for item CC(=O)Nc1ccc(NC(=O)Nc2c(Cl)cccc2Cl)cc1 was 91 % of control

Reported P388 leukemia ip, CD2F1 mice, survival T/C T/C for item Cc1nn(-c2nc(-c3ccc(Br)cc3)cs2)c(C)c1C was 105 % of control

Reported P388 leukemia ip, CD2F1 mice, survival T/C T/C for item CCn1c2ccccc2c2cc(N)c(N=Nc3ccc(N(C)C)cc3)cc21 was 103 % of control

Reported P388 leukemia ip, CD2F1 mice, survival T/C T/C for item C=C(CCCCC)C(=O)/C=C/c1ccccc1 was 118 % of control

Reported P388 leukemia ip, CD2F1 mice, survival T/C T/C for item Cc1ccc(S(=O)(=O)N(CCCc2ccccc2)S(=O)(=O)c2ccc(C)cc2)cc1 was 100 % of control
